Target: Histone deacetylase
Assay: Inhibition of HDAC in human HeLa cell nuclear extracts preincubated for 15 mins followed by addition of Fluor de Lys as substrate for 1 hr by fluorometric assay
Assay type: cell-based
# key: entry, value: log10 of IC50
Form field - Quantity: IC50; Unit: nM; Scale: log10

COc1cc2ncnc(Nc3ccccc3Br)c2cc1OCCCCCCC(=O)NO
0.94
COc1cc2ncnc(Nc3ccccc3F)c2cc1OCCCC(=O)NO
2.83
COc1cc2ncnc(Nc3ccccc3Cl)c2cc1OCCCCCC(=O)NO
1.46
COc1cc2ncnc(Nc3ccc(F)cc3)c2cc1OCCCC(=O)NO
3.13
COc1cc2ncnc(Nc3ccc(F)cc3)c2cc1OCCCCCC(=O)NO
1.46

Query block: Query for Histone deacetylase: what log10 of IC50 does the record show for COc1cc2ncnc(Nc3ccccc3F)c2cc1OCCCCCCC(=O)NO ?
Result block: 1.51

Query block: Item: COc1cc2ncnc(Nc3ccccc3F)c2cc1OCCCCC(=O)NO
Result block: 2.74

###

Target: Histone deacetylase 2 (Homo sapiens, UniProt Q92769)
Sequence (Q92769 whole entry): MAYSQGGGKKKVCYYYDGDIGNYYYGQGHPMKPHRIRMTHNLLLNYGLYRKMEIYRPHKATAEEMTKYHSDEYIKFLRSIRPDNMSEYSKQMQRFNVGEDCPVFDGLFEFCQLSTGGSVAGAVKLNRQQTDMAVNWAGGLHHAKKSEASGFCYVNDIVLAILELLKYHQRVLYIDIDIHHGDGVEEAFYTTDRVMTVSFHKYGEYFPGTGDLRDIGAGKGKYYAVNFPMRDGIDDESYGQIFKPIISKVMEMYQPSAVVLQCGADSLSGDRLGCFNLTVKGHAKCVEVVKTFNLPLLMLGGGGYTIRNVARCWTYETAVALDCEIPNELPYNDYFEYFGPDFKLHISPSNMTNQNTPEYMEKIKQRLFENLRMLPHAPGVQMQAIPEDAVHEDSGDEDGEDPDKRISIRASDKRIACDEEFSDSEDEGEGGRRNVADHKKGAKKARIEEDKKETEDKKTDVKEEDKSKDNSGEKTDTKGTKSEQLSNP
measured-endpoint: IC50 (nM)
Could you give me the number in nM? Just the number is fine.

Query block: Query: IC50; subject: COc1cc2ncnc(Nc3ccc(Br)cc3)c2cc1OCCCCCCC(=O)NO
Result block: 3.3

###

Observed IC50 for UniProt P35968, reported per entry below.
Sequence (P35968 whole entry): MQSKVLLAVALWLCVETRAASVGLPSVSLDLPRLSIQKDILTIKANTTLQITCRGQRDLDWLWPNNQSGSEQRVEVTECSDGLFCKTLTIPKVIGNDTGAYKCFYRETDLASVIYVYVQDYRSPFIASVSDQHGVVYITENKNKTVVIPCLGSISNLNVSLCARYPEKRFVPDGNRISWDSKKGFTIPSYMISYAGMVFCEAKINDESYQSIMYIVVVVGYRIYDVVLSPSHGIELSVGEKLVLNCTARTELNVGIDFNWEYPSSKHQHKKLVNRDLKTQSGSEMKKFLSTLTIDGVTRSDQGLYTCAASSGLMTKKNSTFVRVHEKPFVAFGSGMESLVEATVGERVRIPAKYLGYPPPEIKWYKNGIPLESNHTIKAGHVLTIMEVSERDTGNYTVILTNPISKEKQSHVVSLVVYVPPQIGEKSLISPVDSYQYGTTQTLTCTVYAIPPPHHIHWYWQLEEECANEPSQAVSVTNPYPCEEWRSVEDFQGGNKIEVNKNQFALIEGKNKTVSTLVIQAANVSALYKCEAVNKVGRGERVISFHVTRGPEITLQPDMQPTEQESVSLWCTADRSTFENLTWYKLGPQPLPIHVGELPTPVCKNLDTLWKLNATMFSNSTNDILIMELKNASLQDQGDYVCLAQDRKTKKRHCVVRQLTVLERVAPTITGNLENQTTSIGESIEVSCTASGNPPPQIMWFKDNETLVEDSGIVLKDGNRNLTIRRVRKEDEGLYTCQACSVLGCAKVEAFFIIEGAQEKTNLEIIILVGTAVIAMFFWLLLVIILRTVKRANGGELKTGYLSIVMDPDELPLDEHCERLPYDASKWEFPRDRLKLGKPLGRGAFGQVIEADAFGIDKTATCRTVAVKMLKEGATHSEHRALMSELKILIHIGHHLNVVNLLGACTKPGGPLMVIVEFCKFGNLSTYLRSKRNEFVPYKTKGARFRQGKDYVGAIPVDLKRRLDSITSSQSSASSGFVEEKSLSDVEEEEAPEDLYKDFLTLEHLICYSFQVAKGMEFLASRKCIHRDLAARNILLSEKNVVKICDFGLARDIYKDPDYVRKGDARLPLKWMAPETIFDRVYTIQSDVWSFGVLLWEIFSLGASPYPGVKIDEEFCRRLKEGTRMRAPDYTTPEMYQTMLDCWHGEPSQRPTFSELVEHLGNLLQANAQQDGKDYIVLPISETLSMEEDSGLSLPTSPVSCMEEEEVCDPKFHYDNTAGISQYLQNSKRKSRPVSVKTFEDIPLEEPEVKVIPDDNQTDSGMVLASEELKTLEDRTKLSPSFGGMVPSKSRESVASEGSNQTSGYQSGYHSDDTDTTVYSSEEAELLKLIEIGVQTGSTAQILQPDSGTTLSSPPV
Could you give me the number in nM? Just the number is fine.

Would you please look over these solved cases?
COc1cc2ncnc(Nc3ccccc3F)c2cc1OCCCC(=O)NO
865
COc1cc2ncnc(Nc3ccc(Cl)cc3)c2cc1OCCCCCCC(=O)NO
215
COc1cc2ncnc(Nc3ccc(Cl)cc3)c2cc1OCCCC(=O)NO
182

Query block: Query for UniProt P35968: what IC50 does the record show for COc1cc2ncnc(Nc3ccccc3Cl)c2cc1OCCCCC(=O)NO ?
Result block: 832

Query block: Item: COc1cc2ncnc(Nc3ccc(F)cc3)c2cc1OCCCCC(=O)NO
Result block: 455

###

Test system: MCF7
Assay: Antiproliferative activity against human MCF7 cells after 48 hrs by MTT assay
Format: functional, cell-based
Details: MCF7, 48 h
measured-endpoint: pIC50
pIC50 field: float, defined as -log10 of concentration (mol/L).

Would you please look over these solved cases?
COc1cc2ncnc(Nc3ccccc3F)c2cc1OCCCCCCC(=O)NO
4.82
COc1cc2ncnc(Nc3ccccc3Cl)c2cc1OCCCCCC(=O)NO
4.82
COc1cc2ncnc(Nc3ccc(Br)cc3)c2cc1OCCCCCC(=O)NO
5.46
COc1cc2ncnc(Nc3ccc(Cl)cc3)c2cc1OCCCCC(=O)NO
4.21
COc1cc2ncnc(Nc3ccc(Br)cc3)c2cc1OCCCC(=O)NO
4.28

Alright, here's another molecule for you.
Query block: Query: pIC50; subject: COc1cc2ncnc(Nc3ccc(Cl)cc3)c2cc1OCCCC(=O)NO
Result block: 4.07

###

Biological target: Histone deacetylase
Test: Inhibition of HDAC in human HeLa cell nuclear extracts preincubated for 15 mins followed by addition of Fluor de Lys as substrate for 1 hr by fluorometric assay
Format: cell-based
Kindly apply the following: label 1 if IC50 is less than 100 nM, label 0 in every other case.

Example entries begin here.
COc1cc2ncnc(Nc3ccc(F)cc3)c2cc1OCCCCCCC(=O)NO
label 1
COc1cc2ncnc(Nc3ccc(Cl)cc3)c2cc1OCCCC(=O)NO
label 0
COc1cc2ncnc(Nc3ccc(Br)cc3)c2cc1OCCCCC(=O)NO
label 1

Query block: IC50 strictly < 100 nM for this molecule? COc1cc2ncnc(Nc3ccc(Br)cc3)c2cc1OCCCCCC(=O)NO
Result block: label 1

Query block: Item: COc1cc2ncnc(Nc3ccccc3Br)c2cc1OCCCCCC(=O)NO
Result block: label 1

Query block: Item: COc1cc2ncnc(Nc3ccccc3F)c2cc1OCCCCCC(=O)NO
Result block: label 0

Query block: Item: COc1cc2ncnc(Nc3ccccc3Cl)c2cc1OCCCC(=O)NO
Result block: label 0

Query block: Item: COc1cc2ncnc(Nc3ccccc3Cl)c2cc1OCCCCCCC(=O)NO
Result block: label 1

Query block: Item: COc1cc2ncnc(Nc3ccc(Cl)cc3)c2cc1OCCCCCCC(=O)NO
Result block: label 1

###

Test system: MCF7
Assay: Antiproliferative activity against human MCF7 cells after 48 hrs by MTT assay
Assay type: functional, cell-based
Details: MCF7, 48 h
# key: entry, value: IC50
Could you give me the number in µM? Just the number is fine.

COc1cc2ncnc(Nc3ccc(Cl)cc3)c2cc1OCCCCCC(=O)NO
4
COc1cc2ncnc(Nc3ccccc3Cl)c2cc1OCCCCCCC(=O)NO
7.8

Alright, here's another compound for you.
Query block: Query: IC50; subject: COc1cc2ncnc(Nc3ccc(Br)cc3)c2cc1OCCCCC(=O)NO
Result block: 36

###

Molecular target: Histone deacetylase
Assay: Inhibition of HDAC in human HeLa cell nuclear extracts preincubated for 15 mins followed by addition of Fluor de Lys as substrate for 1 hr by fluorometric assay
Format: cell-based
Kindly apply the following: Criterion met if IC50 is less than 0.1 µM, Criterion not met in every other case.

Example entries begin here.
COc1cc2ncnc(Nc3ccc(Br)cc3)c2cc1OCCCC(=O)NO
Criterion not met
COc1cc2ncnc(Nc3ccc(Cl)cc3)c2cc1OCCCCC(=O)NO
Criterion not met
COc1cc2ncnc(Nc3ccc(F)cc3)c2cc1OCCCCC(=O)NO
Criterion not met
COc1cc2ncnc(Nc3ccc(Cl)cc3)c2cc1OCCCCCC(=O)NO
Criterion met

Query block: IC50 strictly < 0.1 µM for this compound? COc1cc2ncnc(Nc3ccccc3Br)c2cc1OCCCC(=O)NO
Result block: Criterion not met

Query block: Item: COc1cc2ncnc(Nc3ccccc3Br)c2cc1OCCCCC(=O)NO
Result block: Criterion met

Query block: Item: COc1cc2ncnc(Nc3ccc(Br)cc3)c2cc1OCCCCCCC(=O)NO
Result block: Criterion met

Query block: Item: COc1cc2ncnc(Nc3ccccc3Cl)c2cc1OCCCCC(=O)NO
Result block: Criterion not met
